Data provenance: paper PMC3145798

# Tested target: extracytoplasmic domain of M. tuberculosis PknB (ED-PknB, PASTA domains) (Mycobacterium tuberculosis)
# Construct: GST (N, cleaved yes); made in house; host or cells: Escherichia coli BL21 (DE3)
# Sequence (P9WI81 354-626): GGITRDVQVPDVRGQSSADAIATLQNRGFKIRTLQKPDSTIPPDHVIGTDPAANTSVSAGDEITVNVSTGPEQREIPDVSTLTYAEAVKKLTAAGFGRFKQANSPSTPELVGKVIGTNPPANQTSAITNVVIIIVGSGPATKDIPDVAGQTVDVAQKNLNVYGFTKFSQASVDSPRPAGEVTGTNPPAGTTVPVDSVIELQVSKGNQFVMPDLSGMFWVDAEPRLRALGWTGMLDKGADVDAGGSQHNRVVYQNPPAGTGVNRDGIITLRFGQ
# Protocol description: Surface plasmon resonance (Biacore) binding of synthetic muropeptides to immobilized ED-PknB
# Measurement context: Table S1; SPR, two-state binding model, 25°C

Molecule: CC(=O)N[C@H]1C(O)O[C@H](CO)[C@@H](O)[C@@H]1O[C@H](C)C(=O)N[C@@H](C)C(=O)N[C@H](CCC(=O)N[C@@H](CCC[C@@H](N)C(=O)O)C(=O)N[C@H](C)C(N)=O)C(=O)O (stereo partly drawn)
kd2: 3.2 10^-3 s^-1

Molecule: CC(=O)N[C@H]1C(O)O[C@H](CO)[C@@H](O)[C@@H]1O[C@H](C)C(=O)N[C@@H](C)C(=O)N[C@H](CCC(=O)N[C@@H](CCC[C@@H](N)C(=O)O)C(=O)N[C@H](C)C(N)=O)C(N)=O (stereo partly drawn) [MTrP-DAP (amide/acid) 6a]
kd2: 1.4 10^-3 s^-1

Molecule: CC(=O)N[C@H]1C(O)O[C@H](CO)[C@@H](O)[C@@H]1O[C@H](C)C(=O)N[C@@H](C)C(=O)N[C@H](CCC(=O)N[C@@H](CCC[C@@H](N)C(=O)O)C(=O)N[C@H](C)C(=O)N[C@H](C)C(N)=O)C(N)=O (stereo partly drawn) [MPP-DAP (amide/acid) 7]
kd2: 2.8 10^-3 s^-1

Molecule: CC(=O)N[C@H]1C(O)O[C@H](CO)[C@@H](O)[C@@H]1O[C@H](C)C(=O)N[C@@H](C)C(=O)N[C@H](CCC(=O)N[C@@H](CCC[C@@H](N)C(N)=O)C(=O)N[C@H](C)C(N)=O)C(N)=O (stereo partly drawn) [MTrP-DAP (amide/amide) 6c]
kd2: 4.02 10^-3 s^-1

Molecule: CC(=O)N[C@H]1C(O)O[C@H](CO)[C@@H](O)[C@@H]1O[C@H](C)C(=O)N[C@@H](C)C(=O)N[C@H](CCC(=O)N[C@@H](CCC[C@@H](N)C(=O)O)C(N)=O)C(N)=O (stereo partly drawn) [MTP-DAP (amide/acid) 5]
kd2: 3.86 10^-3 s^-1

Molecule: CC(=O)N[C@H](CCC[C@H](NC(=O)CC[C@@H](NC(=O)[C@H](C)NC(=O)[C@@H](C)O[C@H]1[C@H](O)[C@@H](CO)OC(O)[C@@H]1NC(C)=O)C(N)=O)C(=O)N[C@H](C)C(N)=O)C(=O)O (stereo partly drawn) [MTrP-DAP(amide/acid)NHAc 6e]
kd2: 2.2 10^-3 s^-1
